target: phosphodiesterase (PDE); test: PDE inhibition; details: 10,000×g supernatant of human blood platelets, 1 μmol/liter 3H-cAMP, pH 7.4, 15 minutes at 37° C.
MEASUREMENT KIND: IC50 (nM)
Number in nM, nothing else.

| COMPOUND | SYSTEM NAME | MEASUREMENT KIND | UNIT TEXT | VAL |
| --- | --- | --- | --- | --- |
| CC(C)(C)c1ccc(S(=O)(=O)CCCCOc2ccc3c(c2)C(C)(C)C(=O)N3)cc1 | phosphodiesterase (PDE) | IC50 | nM | 240 |
| COc1ccc([S+]([O-])CCCCOc2ccc3c(c2)C(C)(C)C(=O)N3)cc1 (centres unmarked) | phosphodiesterase (PDE) | IC50 | nM | 500 |
| CC(C)(C)c1cc(S(=O)(=O)CCCCOc2ccc3c(c2)C(C)(C)C(=O)N3)cc(C(C)(C)C)c1O | phosphodiesterase (PDE) | IC50 | nM | 59 |
| CC1(C)C(=O)Nc2ccc(OCCCC[S+]([O-])c3ccc(C4CCCCC4)cc3)cc21 (centres unmarked) | phosphodiesterase (PDE) | IC50 | nM | 58 |
| CC1(C)C(=O)Nc2ccc(OCCCC[S+]([O-])c3ccccc3)cc21 (centres unmarked) | phosphodiesterase (PDE) | IC50 | nM | 2500 |

Please look at the following compound next.
Prompt line: Look up and report measured IC50 for this entry: CC(C)(C)c1ccc([S+]([O-])CCCCOc2ccc3c(c2)C(C)(C)C(=O)N3)cc1 (centres unmarked)
Response line: 270

----------
test system: mice; experiment: Acute toxicity; assay type: in vivo; conditions: 1000 mg/kg peroral, observation time 14 days
Recorded Acute toxicity per os (animals died) by entry

| MOLECULE | Acute toxicity per os (animals died) |
| --- | --- |
| COc1cc2ccc([S+]([O-])CCCCOc3ccc4c(c3)C(C)(C)C(=O)N4)cc2cc1OC (centres unmarked) | 0 out of 6 |
| CC(C)(C)c1ccc([S+]([O-])CCCCOc2ccc3c(c2)C(C)(C)C(=O)N3)cc1 (centres unmarked) | 0 out of 6 |
| CC1(C)C(=O)Nc2ccc(OCCCCC[S+]([O-])c3ccc(C4CCCCC4)cc3)cc21 (centres unmarked) | 0 out of 6 |
| CC1(C)C(=O)Nc2ccc(OCCCC[S+]([O-])c3ccc(C4CCCCC4)cc3)cc21 (centres unmarked) | 0 out of 6 |
| CC(C)(C)c1cc([S+]([O-])CCCCOc2ccc3c(c2)C(C)(C)C(=O)N3)cc(C(C)(C)C)c1O (centres unmarked) | 0 out of 6 |

Prompt line: Check the records and state Acute toxicity per os (animals died) for COc1ccc([S+]([O-])CCCCOc2ccc3c(c2)C(C)(C)C(=O)N3)cc1 (centres unmarked)
Response line: 0 out of 6

Prompt line: For CC(C)(C)c1cc(S(=O)(=O)CCCCOc2ccc3c(c2)C(C)(C)C(=O)N3)cc(C(C)(C)C)c1O , write its Acute toxicity per os (animals died).
Response line: 0 out of 6

Prompt line: Determine its reported Acute toxicity per os (animals died): CC1(C)C(=O)Nc2ccc(OCCCCSc3cc(Cl)c(O)c(Cl)c3)cc21
Response line: 0 out of 6

----------
biological target: phosphodiesterase (PDE); test: PDE inhibition; settings: 10,000×g supernatant of human blood platelets, 1 μmol/liter 3H-cAMP, pH 7.4, 15 minutes at 37° C.
MEASUREMENT KIND: pIC50
# pIC50 = -log10(concentration in molar units)

| COMPOUND | pIC50 |
| --- | --- |
| CC1(C)C(=O)Nc2ccc(OCCCCSc3ccc(C4CCCCC4)cc3)cc21 | 5.60 |
| CC1(C)C(=O)Nc2ccc(OCCCCC[S+]([O-])c3ccc(C4CCCCC4)cc3)cc21 (centres unmarked) | 6.42 |
| CC1(C)C(=O)Nc2ccc(OCCCC[S+]([O-])c3ccc4ccccc4c3)cc21 (centres unmarked) | 6.96 |
| CC1(C)C(=O)Nc2ccc(OCCCC[S+]([O-])c3cc(Br)c(N)c(Br)c3)cc21 (centres unmarked) | 6.96 |
| COc1cc2ccc([S+]([O-])CCCCOc3ccc4c(c3)C(C)(C)C(=O)N4)cc2cc1OC (centres unmarked) | 6.62 |

// below: pIC50 requested for another compound
Prompt line: Please supply the value of reported pIC50 for the item CC1(C)C(=O)Nc2ccc(OCCCC[S+]([O-])c3ccc(Cl)c(Cl)c3)cc21 (centres unmarked)
Response line: 6.52

----------
target: phosphodiesterase (PDE); assay: PDE inhibition; settings: 10,000×g supernatant of human blood platelets, 1 μmol/liter 3H-cAMP, pH 7.4, 15 minutes at 37° C.
MEASUREMENT KIND: pIC50
The quantity pIC50 is defined as the negative base-10 logarithm of the molar concentration.

| COMPOUND | VAL |
| --- | --- |
| CC1(C)C(=O)Nc2ccc(OCCCC[S+]([O-])c3ccc(-c4ccccc4F)cc3)cc21 (centres unmarked) [D] | 7.57 |
| CC1(C)C(=O)Nc2ccc(OCCCC[S+]([O-])c3ccc(Cl)cc3)cc21 (centres unmarked) [P] | 6.44 |
| CC(C)(C)c1cc([S+]([O-])CCCCOc2ccc3c(c2)C(C)(C)C(=O)N3)cc(C(C)(C)C)c1O (centres unmarked) [G] | 7.15 |
| COc1ccc([S+]([O-])CCCCOc2ccc3c(c2)C(C)(C)C(=O)N3)cc1OC (centres unmarked) [E] | 6.27 |

Attention now turns to another entry.
Prompt line: Quick one: give measured pIC50 for COc1cc2ccc(S(=O)(=O)CCCCOc3ccc4c(c3)C(C)(C)C(=O)N4)cc2cc1OC [F]
Response line: 6.62
